Task for the reader: assign each of the following binders its reported 50% Neutralization MRC-9 (hCMV VR1814).
# targetDesc: hCMV UL128, UL130 and UL131A co-expressed in HEK293T cells (human cytomegalovirus, UniProt P16837 1-171; P16772 1-214)
# Sequence (P16837 whole entry, chain 1 of 2): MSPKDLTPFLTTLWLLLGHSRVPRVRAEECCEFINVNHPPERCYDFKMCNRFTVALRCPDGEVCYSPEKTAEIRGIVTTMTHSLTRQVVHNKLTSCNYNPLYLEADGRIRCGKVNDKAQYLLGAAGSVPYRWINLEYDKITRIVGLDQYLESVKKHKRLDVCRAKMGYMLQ
# Sequence (P16772 whole entry, chain 2 of 2): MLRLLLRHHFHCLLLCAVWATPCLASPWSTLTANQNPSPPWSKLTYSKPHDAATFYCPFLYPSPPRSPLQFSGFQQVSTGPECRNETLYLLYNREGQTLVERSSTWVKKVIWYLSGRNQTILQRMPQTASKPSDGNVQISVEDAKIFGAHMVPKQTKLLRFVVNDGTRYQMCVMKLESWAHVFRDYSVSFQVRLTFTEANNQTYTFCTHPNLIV
# assayMethodText: cell-based or functional assay

## Task Which 50% Neutralization MRC-9 (hCMV VR1814) value is on record for 7B13 (antibody, V domains shown, human IgG mAb) VH: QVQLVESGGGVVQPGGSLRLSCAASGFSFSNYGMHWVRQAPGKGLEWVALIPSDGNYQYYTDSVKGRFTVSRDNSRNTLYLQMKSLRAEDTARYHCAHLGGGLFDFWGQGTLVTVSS VL: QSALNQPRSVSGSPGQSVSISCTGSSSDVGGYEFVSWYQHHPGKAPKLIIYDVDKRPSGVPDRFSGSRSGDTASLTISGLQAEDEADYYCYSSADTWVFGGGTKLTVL ?
## Result > 2 µg/mL

## Task Ok, now 2C12 (antibody, V domains shown, human IgG mAb; also called 2C12-biotin) VH: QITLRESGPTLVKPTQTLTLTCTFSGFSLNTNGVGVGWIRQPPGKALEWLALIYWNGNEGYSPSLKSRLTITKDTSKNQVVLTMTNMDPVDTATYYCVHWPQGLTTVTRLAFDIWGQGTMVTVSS VL: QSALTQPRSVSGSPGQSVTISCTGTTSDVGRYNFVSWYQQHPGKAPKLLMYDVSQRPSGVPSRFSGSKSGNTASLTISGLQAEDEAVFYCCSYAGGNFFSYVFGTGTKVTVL
## Result ≤ 2 µg/mL

## Task Next entry: 7I13 (antibody, V domains shown, human IgG mAb) VH: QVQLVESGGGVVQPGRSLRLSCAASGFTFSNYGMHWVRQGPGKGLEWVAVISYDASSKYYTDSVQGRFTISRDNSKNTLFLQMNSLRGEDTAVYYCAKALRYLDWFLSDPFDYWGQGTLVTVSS VL: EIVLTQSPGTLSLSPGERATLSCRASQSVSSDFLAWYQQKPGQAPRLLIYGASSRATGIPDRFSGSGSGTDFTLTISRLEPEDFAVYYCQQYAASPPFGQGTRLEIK
## Result > 2 µg/mL

## Task // same read-out, input: 8J16 (antibody, V domains shown, human IgG mAb; also called 8J16-biotin) VH: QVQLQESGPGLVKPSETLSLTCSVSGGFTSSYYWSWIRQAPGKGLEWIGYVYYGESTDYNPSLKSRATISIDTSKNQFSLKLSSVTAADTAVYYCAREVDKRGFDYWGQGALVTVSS VL: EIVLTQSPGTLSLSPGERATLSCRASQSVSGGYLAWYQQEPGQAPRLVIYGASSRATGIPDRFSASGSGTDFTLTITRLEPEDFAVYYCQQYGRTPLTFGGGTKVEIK
## Result > 2 µg/mL

## Task Repeat for the following binder: 8C15 (antibody, V domains shown, human IgG mAb; also called 8C15-biotin) VH: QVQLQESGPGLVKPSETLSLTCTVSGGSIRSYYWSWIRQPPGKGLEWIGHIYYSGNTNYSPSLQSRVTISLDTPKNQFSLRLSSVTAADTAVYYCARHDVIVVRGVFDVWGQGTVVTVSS VL: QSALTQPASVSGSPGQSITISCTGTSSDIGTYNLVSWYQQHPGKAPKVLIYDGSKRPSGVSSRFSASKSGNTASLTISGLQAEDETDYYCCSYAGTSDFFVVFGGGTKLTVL
## Result > 2 µg/mL

## Task Repeat with 9I6 (antibody, V domains shown, human IgG mAb; also called 9I6-biotin; 916) VH: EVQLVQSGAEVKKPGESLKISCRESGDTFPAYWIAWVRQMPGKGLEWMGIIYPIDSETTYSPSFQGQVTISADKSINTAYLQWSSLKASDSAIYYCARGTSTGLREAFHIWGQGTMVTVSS VL: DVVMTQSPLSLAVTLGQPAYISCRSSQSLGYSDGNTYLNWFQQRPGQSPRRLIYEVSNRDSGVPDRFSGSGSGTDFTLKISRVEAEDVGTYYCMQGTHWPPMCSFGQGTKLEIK
## Result > 2 µg/mL
